The reported numbers originate from patent US20060257938A1.

# protocol.description: Probe fluorescence ratio response to linolenic acid relative to ADIFAB2
# Type: binding
# experimental.setup: response relative to ADIFAB2
property.name: DR/DR LNA

These recorded examples may help you get a feel for the data.
State, in one line, measured DR/DR LNA of 62E, 72A (protein, listed as Rattus norvegicus, PEPTIDE (1)...(131) wild-type rat intestinal fatty acid binding protein) AFDGTWKVDRNENYEKFMEKMGINVVKRKLGAHDNLKLTITQEGNKFTVKESSNFRNIDVVEELGVDFAYSAADGTELTGTWTMEGNKLVGKFKRVDNGKELIAVREISGNELIQTYTYEGVEAKRIFKKE 1.52

Read off the recorded DR/DR LNA for 18I 31F 72A (protein, listed as Rattus norvegicus, PEPTIDE (1)...(131) wild-type rat intestinal fatty acid binding protein) AFDGTWKVDRNENYEKFIEKMGINVVKRKLFAHDNLKLTITQEGNKFTVKESSNFRNIDVVFELGVDFAYSAADGTELTGTWTMEGNKLVGKFKRVDNGKELIAVREISGNELIQTYTYEGVEAKRIFKKE 3.027

Look up and report measured DR/DR LNA for this entry: 126M, 72A (protein, listed as Rattus norvegicus, PEPTIDE (1)...(131) wild-type rat intestinal fatty acid binding protein) AFDGTWKVDRNENYEKFMEKMGINVVKRKLGAHDNLKLTITQEGNKFTVKESSNFRNIDVVFELGVDFAYSAADGTELTGTWTMEGNKLVGKFKRVDNGKELIAVREISGNELIQTYTYEGVEAKMIFKKE 0.28

Provide one value: measured DR/DR LNA of 34V, 72A (protein, listed as Rattus norvegicus, PEPTIDE (1)...(131) wild-type rat intestinal fatty acid binding protein) AFDGTWKVDRNENYEKFMEKMGINVVKRKLGAHVNLKLTITQEGNKFTVKESSNFRNIDVVFELGVDFAYSAADGTELTGTWTMEGNKLVGKFKRVDNGKELIAVREISGNELIQTYTYEGVEAKRIFKKE 1.21

Output measured DR/DR LNA for this item: 17E, 72A (protein, listed as Rattus norvegicus, PEPTIDE (1)...(131) wild-type rat intestinal fatty acid binding protein) AFDGTWKVDRNENYEKEMEKMGINVVKRKLGAHDNLKLTITQEGNKFTVKESSNFRNIDVVFELGVDFAYSAADGTELTGTWTMEGNKLVGKFKRVDNGKELIAVREISGNELIQTYTYEGVEAKRIFKKE 0.88

New cases:
State its DR/DR LNA for this molecule: 72A 74N (protein, listed as Rattus norvegicus, PEPTIDE (1)...(131) wild-type rat intestinal fatty acid binding protein) AFDGTWKVDRNENYEKFMEKMGINVVKRKLGAHDNLKLTITQEGNKFTVKESSNFRNIDVVFELGVDFAYSAANGTELTGTWTMEGNKLVGKFKRVDNGKELIAVREISGNELIQTYTYEGVEAKRIFKKE 1.701
